# Test system: XF498
# Experiment notes: In vitro cytotoxic activity against XF 498 (CNS) using SRB (sulforhodamine B) assay
# Assay type: functional, cell-based, Homo sapiens
# Test parameters: Homo sapiens, XF498; read-out: IC50
Hi there, I'd appreciate the recorded IC50 for every entry that follows.
Give bare numbers, in µg/mL.

Check out these entries, answers already filled in.
- Substance smiles: "CCc1ccc(NC2=C(Cl)C(=O)c3cccnc3C2=O)cc1"
  Value unit: "µg/mL"
  IC50: 0.66
- Substance smiles: "Cc1ccc(NC2=C(Cl)C(=O)c3ccncc3C2=O)cc1"
  Value unit: "µg/mL"
  IC50: 1.06

Next item in the queue.
Request: Provide one value: measured IC50 of O=C1C(Cl)=C(Nc2ccccc2)C(=O)c2ncccc21
Response: 1.33
